These data points were gathered from patent US20120219562A1.

- target.of.assay: T1, human interleukin 12 (p70 heterodimer of p35 and p40) (human, UniProt P29459 23-219; P29460 23-328)
- T1 construct: Recombinant human IL-12; also called hIL-12; IL-12
- T1 sequence (looked up) 1: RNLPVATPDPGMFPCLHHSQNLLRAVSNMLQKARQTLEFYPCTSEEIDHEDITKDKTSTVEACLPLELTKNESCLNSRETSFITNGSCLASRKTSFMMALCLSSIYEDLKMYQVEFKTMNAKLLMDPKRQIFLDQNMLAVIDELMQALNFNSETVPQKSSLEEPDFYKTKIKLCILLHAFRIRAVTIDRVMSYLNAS
- T1 sequence (looked up) 2: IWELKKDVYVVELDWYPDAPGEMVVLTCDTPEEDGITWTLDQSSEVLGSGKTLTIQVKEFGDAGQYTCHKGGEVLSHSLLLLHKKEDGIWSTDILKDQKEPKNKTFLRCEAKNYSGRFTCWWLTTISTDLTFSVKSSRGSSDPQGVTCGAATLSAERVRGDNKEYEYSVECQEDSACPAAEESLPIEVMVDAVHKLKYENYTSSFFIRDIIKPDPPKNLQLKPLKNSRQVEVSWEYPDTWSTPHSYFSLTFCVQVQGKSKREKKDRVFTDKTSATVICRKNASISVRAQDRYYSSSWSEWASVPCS
- experiment.summary: SPR (BIAcore), off-rate
I'd appreciate it if you marked entries true when koff is lower than 0.002 s⁻¹ and false when it is not.

[[record]]
binder = "SEQ ID NO: 484 (Y61, K at L31) (antibody, V domains shown) VH: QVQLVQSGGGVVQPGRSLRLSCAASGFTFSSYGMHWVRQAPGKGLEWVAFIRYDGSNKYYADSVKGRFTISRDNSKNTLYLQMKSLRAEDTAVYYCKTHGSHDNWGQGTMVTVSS VL: SYVLTQPPSVSGTPGQRVTISCSGGRSNIGSKTVKWYQQLPGTAPKLLIYGNDQRPSGVPDRFSGSKSGTSASLAITGVQAEDEADYYCQSYDRGTHPALLFGTGTKVTVLG"
assigned_category = "true"

[[record]]
binder = "SEQ ID NO: 494 (Y61, Y at L32) (antibody, V domains shown) VH: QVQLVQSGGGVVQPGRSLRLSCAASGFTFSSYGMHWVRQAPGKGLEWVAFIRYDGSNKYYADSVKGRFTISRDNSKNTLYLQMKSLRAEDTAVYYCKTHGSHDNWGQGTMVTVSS VL: SYVLTQPPSVSGTPGQRVTISCSGGRSNIGSNYVKWYQQLPGTAPKLLIYGNDQRPSGVPDRFSGSKSGTSASLAITGVQAEDEADYYCQSYDRGTHPALLFGTGTKVTVLG"
assigned_category = "true"

[[record]]
binder = "SEQ ID NO: 487 (Y61, T at L31) (antibody, V domains shown) VH: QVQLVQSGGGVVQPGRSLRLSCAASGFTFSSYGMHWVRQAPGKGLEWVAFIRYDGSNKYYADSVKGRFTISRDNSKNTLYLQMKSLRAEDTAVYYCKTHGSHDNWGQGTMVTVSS VL: SYVLTQPPSVSGTPGQRVTISCSGGRSNIGSTTVKWYQQLPGTAPKLLIYGNDQRPSGVPDRFSGSKSGTSASLAITGVQAEDEADYYCQSYDRGTHPALLFGTGTKVTVLG"
assigned_category = "true"

[[record]]
binder = "SEQ ID NO: 492 (Y61, C at L32) (antibody, V domains shown) VH: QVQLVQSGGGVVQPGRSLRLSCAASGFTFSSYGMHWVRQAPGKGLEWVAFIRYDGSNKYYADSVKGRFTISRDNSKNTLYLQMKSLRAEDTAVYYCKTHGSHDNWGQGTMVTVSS VL: SYVLTQPPSVSGTPGQRVTISCSGGRSNIGSNCVKWYQQLPGTAPKLLIYGNDQRPSGVPDRFSGSKSGTSASLAITGVQAEDEADYYCQSYDRGTHPALLFGTGTKVTVLG"
assigned_category = "false"

[[record]]
binder = "SEQ ID NO: 503 (Y61, L at L32) (antibody, V domains shown) VH: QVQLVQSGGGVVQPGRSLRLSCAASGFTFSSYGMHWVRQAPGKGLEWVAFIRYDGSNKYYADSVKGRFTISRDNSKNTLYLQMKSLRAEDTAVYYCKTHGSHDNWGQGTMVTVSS VL: SYVLTQPPSVSGTPGQRVTISCSGGRSNIGSNLVKWYQQLPGTAPKLLIYGNDQRPSGVPDRFSGSKSGTSASLAITGVQAEDEADYYCQSYDRGTHPALLFGTGTKVTVLG"
assigned_category = "false"

[[record]]
binder = "SEQ ID NO: 504 (Y61, I at L32) (antibody, V domains shown) VH: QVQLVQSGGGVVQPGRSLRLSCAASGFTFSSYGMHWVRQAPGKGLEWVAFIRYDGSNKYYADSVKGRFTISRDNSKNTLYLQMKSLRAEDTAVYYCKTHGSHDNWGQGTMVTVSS VL: SYVLTQPPSVSGTPGQRVTISCSGGRSNIGSNIVKWYQQLPGTAPKLLIYGNDQRPSGVPDRFSGSKSGTSASLAITGVQAEDEADYYCQSYDRGTHPALLFGTGTKVTVLG"
assigned_category = "true"

[[record]]
binder = "SEQ ID NO: 493 (Y61, S at L32) (antibody, V domains shown) VH: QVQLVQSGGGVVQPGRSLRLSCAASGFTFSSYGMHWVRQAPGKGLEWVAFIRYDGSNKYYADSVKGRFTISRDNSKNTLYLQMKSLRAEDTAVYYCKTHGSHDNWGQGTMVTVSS VL: SYVLTQPPSVSGTPGQRVTISCSGGRSNIGSNSVKWYQQLPGTAPKLLIYGNDQRPSGVPDRFSGSKSGTSASLAITGVQAEDEADYYCQSYDRGTHPALLFGTGTKVTVLG"
assigned_category = "true"

[[record]]
binder = "SEQ ID NO: 480 (Y61, E at L31) (antibody, V domains shown) VH: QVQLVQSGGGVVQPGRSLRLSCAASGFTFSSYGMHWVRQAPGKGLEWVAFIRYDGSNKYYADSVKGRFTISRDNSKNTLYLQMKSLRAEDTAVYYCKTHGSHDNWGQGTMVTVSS VL: SYVLTQPPSVSGTPGQRVTISCSGGRSNIGSETVKWYQQLPGTAPKLLIYGNDQRPSGVPDRFSGSKSGTSASLAITGVQAEDEADYYCQSYDRGTHPALLFGTGTKVTVLG"
assigned_category = "true"

[[record]]
binder = "SEQ ID NO: 502 (Y61, V at L32) (antibody, V domains shown) VH: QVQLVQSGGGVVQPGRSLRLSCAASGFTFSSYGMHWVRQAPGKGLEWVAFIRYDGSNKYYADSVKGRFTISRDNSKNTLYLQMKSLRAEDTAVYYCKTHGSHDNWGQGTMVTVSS VL: SYVLTQPPSVSGTPGQRVTISCSGGRSNIGSNVVKWYQQLPGTAPKLLIYGNDQRPSGVPDRFSGSKSGTSASLAITGVQAEDEADYYCQSYDRGTHPALLFGTGTKVTVLG"
assigned_category = "true"

[[record]]
binder = "SEQ ID NO: 505 (Y61, P at L32) (antibody, V domains shown) VH: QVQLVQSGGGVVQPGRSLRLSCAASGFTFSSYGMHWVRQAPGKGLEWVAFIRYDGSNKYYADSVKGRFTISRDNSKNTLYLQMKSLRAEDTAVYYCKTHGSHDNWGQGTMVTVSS VL: SYVLTQPPSVSGTPGQRVTISCSGGRSNIGSNPVKWYQQLPGTAPKLLIYGNDQRPSGVPDRFSGSKSGTSASLAITGVQAEDEADYYCQSYDRGTHPALLFGTGTKVTVLG"
assigned_category = "true"

